Where these numbers come from: the supplement of paper PMC11417369

Recorded gcPBM binding intensity (ln) for the following sequences
System: PfAP2-HC AP2 domain (GST-tagged)
Assay: gcPBM binding intensity (ln(normalized median fluorescence intensity)); higher = stronger DNA binding
The full ranking holds about 25,000 sequences; the median of “ln(normalized median fluorescence intensity)” is about 9.7, and the highest 2% start at about 11. For the sample, the highest values were picked, then their nearest neighbours and some sequences at random.
# answer = number (no unit)

Solved entries (count: 5):
TCATTTTATTTTTTCACACACACATATATATATATA [CACACA_site3333]    10.2
TATATTATCAAAATGGTGCAATAATTTCTATATTAT [GTGCAC_site9772]    9.49
TATAAATAAAAACACACACACATATATATATATATA [CACACA_site2319]    10.4
ACCTAAAAGGTATAATATATAAATAAAAAAAAAAAT [CACACA_negctrl_site134]    9.72
TTTCATTTCACAGACACACACACACCCTATATTTCC [CACACA_site3906]    11.2

Look at this sequence and give its reported gcPBM binding intensity (ln). TCATTTCACAAACACACACACACAATATATTTCCTT [CACACA_site3905]
10.3

Query: gcPBM binding intensity (ln); subject: CATATACACGAACACACACACATATAAATAAATATA [CACACA_site6379]
10.6

Need gcPBM binding intensity (ln), item TTATAAATAAAAAATACACACATATATATATATATA [CACACA_site207]
9.57

Sample TCTTTTAAACAGTACACACACACATATATATATATA [CACACA_site924] — what was its gcPBM binding intensity (ln)?
10.7

What value of gcPBM binding intensity (ln) has been reported for the following sequence? GTTATAAATAAATATACACACATATATAAAATACAT [CACACA_site7146]
9.97

GET /values?readout=gcPBM binding intensity (ln)&item= TTTAATTTATATTTTGTGCACATCTTATTATATATA [GTGCAC_site9630]
9.88

---

Tested on: PfAP2-HC AP2 domain (GST-tagged)
Test: gcPBM binding intensity (ln(normalized median fluorescence intensity)); higher = stronger DNA binding
In all, about 25,000 sequences were measured (“ln(normalized median fluorescence intensity)”: median about 9.7, highest 2% from about 11 on). The full list was thinned out, with the highest values kept by preference.
readoutName: gcPBM binding intensity (ln)
Note: the reply should be a number with no unit written.

Example entries and their recorded answers appear below.
ATTAAATAAAAAAACACACACATATATACCTATATA [CACACA_site5837]    11
TAAAAGGATACATATACACACATATATATATATATA [CACACA_site2791]    9.85
ACCCATAAAAAGGATACACACACACCCACCCATATA [CACACA_site8205]    10.6

State the recorded gcPBM binding intensity (ln) for this entry: AAAACATACCTATATACACACATATAAATATAAATA [CACACA_site6956]
10.1

I would be grateful if you could share the reported gcPBM binding intensity (ln) for AAAAAAATTAAACACACACACACATATATATATATA [CACACA_site4718] .
11.5

---

// reported gcPBM binding intensity (ln) for each item listed
Test system: PfAP2-HC AP2 domain (GST-tagged)
Test: gcPBM binding intensity (ln(normalized median fluorescence intensity)); higher = stronger DNA binding
In all, about 25,000 sequences were measured (“ln(normalized median fluorescence intensity)”: median about 9.7, highest 2% from about 11 on). Shown is part of a subset that was picked to be rich in the highest values.
API doc: respond with a numeric literal and nothing else, no unit.

TTCAAATATAAATACACACACATAGCTACAAAATAA [CACACA_site4172]    11

Please look up its gcPBM binding intensity (ln): ATAATTAACAAATACACACACACACCCAGACAAAAA [CACACA_site4445]
10.8

So what does the record say about gcPBM binding intensity (ln) for AAAAAAAAAAAAAAAAGTACTAATTGAATATTAAAC [XGTACX_site3383] ?
9.44

Recorded gcPBM binding intensity (ln) of AAAAAAGAATAGCACACACACATATATAAATATAAA [CACACA_site4518] , please.
10.5

Would you kindly share the measured gcPBM binding intensity (ln) for TTTTATAAAAACAAAAACAAAGGCACTTTCTAAAGA [XGTACX_negctrl_site130] ?
9.58

Look at this sequence and give its reported gcPBM binding intensity (ln). GTTAATTGAAGATTCACACATAAATATATATATAAT [CACACA_site5482]
9.61

# query: gcPBM binding intensity (ln) of entry TATAAATACATCCTATACTTCTCTTTTACAGTTTTA [CACACA_negctrl_site1283]
9.62

Form field: reported gcPBM binding intensity (ln) of TATATTTGTACATGATATTTTTTTTTTCTTTTAAAA [CACACA_negctrl_site754]
9.43
